target: UniProtKB P21802; assay: FGFR enzymatic assay (FRET peptide phosphorylation), FGFR2; format: biochemical; conditions: FGFR2 enzyme 0.01 nM, ATP 100 μM
Sequence (P21802 22-821): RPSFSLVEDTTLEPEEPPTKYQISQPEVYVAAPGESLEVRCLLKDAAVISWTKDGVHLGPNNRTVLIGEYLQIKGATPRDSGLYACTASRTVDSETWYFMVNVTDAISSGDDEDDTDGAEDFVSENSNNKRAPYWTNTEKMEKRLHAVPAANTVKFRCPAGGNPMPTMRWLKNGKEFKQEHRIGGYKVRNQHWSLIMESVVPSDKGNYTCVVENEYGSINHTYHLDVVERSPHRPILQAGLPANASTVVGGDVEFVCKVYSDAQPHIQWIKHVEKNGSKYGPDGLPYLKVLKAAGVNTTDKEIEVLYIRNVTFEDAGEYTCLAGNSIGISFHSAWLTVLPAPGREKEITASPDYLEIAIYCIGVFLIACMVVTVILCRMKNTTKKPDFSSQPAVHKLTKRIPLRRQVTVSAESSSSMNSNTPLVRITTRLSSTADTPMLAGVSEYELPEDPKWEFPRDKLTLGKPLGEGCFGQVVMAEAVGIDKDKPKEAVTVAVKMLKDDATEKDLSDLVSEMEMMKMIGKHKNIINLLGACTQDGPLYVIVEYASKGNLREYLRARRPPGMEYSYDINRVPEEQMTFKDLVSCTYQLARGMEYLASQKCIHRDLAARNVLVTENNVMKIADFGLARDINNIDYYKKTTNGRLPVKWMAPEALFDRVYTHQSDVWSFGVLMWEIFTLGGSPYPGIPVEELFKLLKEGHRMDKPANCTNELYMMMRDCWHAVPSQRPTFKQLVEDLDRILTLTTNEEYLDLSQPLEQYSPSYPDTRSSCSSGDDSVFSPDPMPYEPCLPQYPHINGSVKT
MEASURED ENDPOINT: IC50

Known IC50 results, listed for orientation:
[[record]]
compound = "COc1cc(OC)c(F)c(N2Cc3cnc4[nH]ccc4c3N(C3CCOCC3)C2=O)c1F [Example 46]"
experimental_target = "UniProtKB P21802"
observed_measurement = "< 100 nM"

[[record]]
compound = "COc1cc(OC)c(F)c(N2Cc3cnc4[nH]c(CN5CCCC(F)(F)C5)cc4c3N(C)C2=O)c1F [Example 113]"
experimental_target = "UniProtKB P21802"
observed_measurement = "< 100 nM"

[[record]]
compound = "COCCn1cc(N2C(=O)N(c3c(F)c(OC)cc(OC)c3F)Cc3cnc4[nH]ncc4c32)cn1 [Example 174]"
experimental_target = "UniProtKB P21802"
observed_measurement = "< 100 nM"

[[record]]
compound = "COc1cc(OC)c(F)c(N2Cc3cnc4[nH]c(CCN5CCOCC5)cc4c3N(CCO)C2=O)c1F [Example 146]"
experimental_target = "UniProtKB P21802"
observed_measurement = "< 100 nM"


Looking for the measured IC50 of COc1cc(OC)c(F)c(N2Cc3cnc4[nH]c(CN5CC[C@@H](C#N)C5)cc4c3N(C)C2=O)c1F [Example 209] , can you help?
< 100 nM

Looking for the measured IC50 of COc1cc(OC)c(F)c(N2Cc3cnc4[nH]c(CCN5CCC5)cc4c3N(C)C2=O)c1F [Example 115] , can you help?
< 100 nM

Looking for the measured IC50 of COc1cc(OC)c(F)c(N2Cc3cnc4[nH]c(CCN5CCCC5)cc4c3N(C)C2=O)c1F [Example 116] , can you help?
< 100 nM

Looking for the measured IC50 of CCN1C(=O)N(c2c(F)c(OC)cc(OC)c2F)Cc2cnc3[nH]c(COc4cccnc4)cc3c21 [Example 220] , can you help?
< 100 nM

* * *

biological target: FGFR1 (Homo sapiens (Human)); test: FGFR enzymatic assay (FRET peptide phosphorylation), FGFR1; assay type: biochemical; conditions: FGFR1 enzyme 0.02 nM, ATP 210 μM
Sequence (P11362 22-822): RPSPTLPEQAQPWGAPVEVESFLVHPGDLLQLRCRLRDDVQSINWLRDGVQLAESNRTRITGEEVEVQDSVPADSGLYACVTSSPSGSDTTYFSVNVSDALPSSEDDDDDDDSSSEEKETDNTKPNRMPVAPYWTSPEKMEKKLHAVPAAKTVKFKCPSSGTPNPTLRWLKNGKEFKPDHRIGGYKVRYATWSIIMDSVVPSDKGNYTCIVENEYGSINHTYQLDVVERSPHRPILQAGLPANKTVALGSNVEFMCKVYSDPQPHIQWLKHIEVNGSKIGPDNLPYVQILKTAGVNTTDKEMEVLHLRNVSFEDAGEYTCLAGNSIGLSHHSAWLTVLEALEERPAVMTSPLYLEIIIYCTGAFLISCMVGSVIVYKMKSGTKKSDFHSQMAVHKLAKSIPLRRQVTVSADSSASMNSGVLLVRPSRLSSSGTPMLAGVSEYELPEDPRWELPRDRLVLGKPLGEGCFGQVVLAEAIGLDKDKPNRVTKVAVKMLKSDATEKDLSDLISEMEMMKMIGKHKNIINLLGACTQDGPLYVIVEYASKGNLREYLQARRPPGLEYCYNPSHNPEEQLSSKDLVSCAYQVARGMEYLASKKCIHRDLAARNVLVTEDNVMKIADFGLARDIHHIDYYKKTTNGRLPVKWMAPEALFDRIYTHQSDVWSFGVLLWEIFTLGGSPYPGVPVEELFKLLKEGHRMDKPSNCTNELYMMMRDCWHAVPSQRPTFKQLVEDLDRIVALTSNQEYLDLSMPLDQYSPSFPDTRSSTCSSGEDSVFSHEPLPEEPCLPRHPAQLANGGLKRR
pIC50: −log10 of the molar value.
MEASURED ENDPOINT: pIC50

[[record]]
structure_notation = "COc1cc(OC)c(F)c(N2Cc3cnc4c(c3N(c3ncccc3Cl)C2=O)CC(=O)N4)c1F"
observed_measurement = "> 7.00"

[[record]]
structure_notation = "COc1cc(OC)cc(N2Cc3cnc4[nH]ccc4c3N(C)C2=O)c1"
observed_measurement = "> 7.00"

[[record]]
structure_notation = "CCN1C(=O)N(c2c(F)c(OC)cc(OC)c2F)Cc2cnc3[nH]ccc3c21"
observed_measurement = "> 7.00"


Looking for the measured pIC50 of COc1cc(OC)c(F)c(N2Cc3cnc4[nH]c(C(=O)N5CCN(C)CC5)cc4c3N(C)C2=O)c1F , can you help?
> 7.00

* * *

biological target: FGFR3 (Homo sapiens (Human), UniProt P22607); assay: FGFR enzymatic assay (FRET peptide phosphorylation), FGFR3; format: biochemical; details: FGFR3 enzyme (Millipore), ATP 140 μM
Sequence (P22607 23-806): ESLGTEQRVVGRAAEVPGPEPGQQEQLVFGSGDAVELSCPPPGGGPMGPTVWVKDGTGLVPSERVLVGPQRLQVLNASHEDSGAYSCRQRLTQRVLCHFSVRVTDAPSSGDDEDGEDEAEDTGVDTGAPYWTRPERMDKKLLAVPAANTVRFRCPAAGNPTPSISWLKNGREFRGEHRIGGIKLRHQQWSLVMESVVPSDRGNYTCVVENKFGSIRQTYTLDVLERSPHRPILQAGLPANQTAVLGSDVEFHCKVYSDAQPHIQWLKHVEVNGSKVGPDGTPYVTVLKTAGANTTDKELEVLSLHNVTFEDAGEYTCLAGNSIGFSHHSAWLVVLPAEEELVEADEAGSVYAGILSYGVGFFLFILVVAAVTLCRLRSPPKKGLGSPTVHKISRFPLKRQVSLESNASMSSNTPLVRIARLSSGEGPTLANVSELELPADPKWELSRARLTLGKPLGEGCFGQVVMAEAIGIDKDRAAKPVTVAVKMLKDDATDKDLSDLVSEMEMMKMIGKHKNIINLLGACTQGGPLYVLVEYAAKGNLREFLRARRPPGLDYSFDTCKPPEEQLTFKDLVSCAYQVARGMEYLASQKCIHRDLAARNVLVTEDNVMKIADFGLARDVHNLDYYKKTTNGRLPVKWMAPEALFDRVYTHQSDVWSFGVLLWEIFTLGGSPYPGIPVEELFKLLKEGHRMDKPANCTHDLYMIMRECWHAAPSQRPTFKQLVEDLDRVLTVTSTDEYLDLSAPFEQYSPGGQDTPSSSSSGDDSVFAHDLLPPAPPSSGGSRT
pIC50: −log10 of the molar value.
MEASURED ENDPOINT: pIC50

[[record]]
structure_notation = "CCN1CCN(CCc2cc3c4c(cnc3[nH]2)CN(c2c(F)c(OC)cc(OC)c2F)C(=O)C4(C)C)CC1"
observed_measurement = "> 7.00"

[[record]]
structure_notation = "COc1cc(OC)c(F)c(N2Cc3cnc4[nH]ccc4c3NC2=O)c1F"
observed_measurement = "> 7.00"

[[record]]
structure_notation = "COc1cc(OC)cc(N2Cc3cnc4[nH]c(C(=O)N(C)C)cc4c3N(C)C2=O)c1"
observed_measurement = "> 7.00"

[[record]]
structure_notation = "COc1cc(OC)c(F)c(N2Cc3cnc4[nH]c(CCN5CCN(C)CC5)cc4c3N(c3ccc(F)cc3)C2=O)c1F"
observed_measurement = "> 7.00"


Next, consider the following compound.
Looking for the measured pIC50 of COc1cc(OC)c(F)c(N2Cc3cnc4[nH]ncc4c3N(c3cccc(C(=O)NC4CC4)c3F)C2=O)c1F , can you help?
> 7.00
